The measured values listed here are drawn from patent US20210255193A1.

Biological target: RPS10 40S ribosomal protein S10 (Homo sapiens, UniProt P46783)
Construct: isoTOP-ABPP experiments performed in cell lysates (in vitro); endogenous in cells; host or cells: soluble proteome of human cancer cell lines (MDA-MB-231; Ramos and Jurkat also prepared)
Experiment: competitive isoTOP-ABPP
Format: binding
Conditions: P46783_K139; 50 uM, 231 sol, in vitro
Exercise: for every item that follows, state its recorded R value (DMSO/fragment) for probe 1 labeling.
Numbers only.

Please review the entries below; each comes with its answer.
COMPOUND	TARGET ENTITY	NUMERIC READOUT
O=C(CCc1cn(-c2ccccc2)nc1-c1ccccc1)Oc1c(F)c(F)c(F)c(F)c1F [fragment 19]	RPS10 40S ribosomal protein S10 (Homo sapiens, UniProt P46783)	1.0
O=C(Oc1c(F)c(F)c(F)c(F)c1F)C(c1ccccc1)c1ccccc1 [fragment 20, Pentafluorophenyl 2,2-diphenylacetate]	RPS10 40S ribosomal protein S10 (Homo sapiens, UniProt P46783)	0.6
O=C(Oc1c(F)c(F)c(F)c(F)c1F)c1cc(C(F)(F)F)cc(C(F)(F)F)c1 [fragment 21]	RPS10 40S ribosomal protein S10 (Homo sapiens, UniProt P46783)	0.5

Task: Form field: reported R value (DMSO/fragment) for probe 1 labeling of Cn1cc(CC(=O)Oc2c(F)c(F)c(F)c(F)c2F)c2ccccc21 [fragment 22]
Output: 0.9

---

Target: ABCE1 ATP-binding cassette sub-family E member 1 (Homo sapiens, UniProt P61221)
Construct: isoTOP-ABPP experiments performed in cell lysates (in vitro); endogenous in cells; host or cells: soluble proteome of human cancer cell lines (MDA-MB-231, Ramos, Jurkat)
Assay: competitive isoTOP-ABPP
Details: 50 uM, in vitro, sol, 231
MEASURED PARAMETER: isoTOP-ABPP ratio (R) at liganded lysine P61221_K478
Answers are plain numbers.

Here is how some compounds turned out for isoTOP-ABPP ratio (R) at liganded lysine P61221_K478.
COMPOUND	TARGET ENTITY	NUMERIC READOUT
CC(C)(C)OC(=O)NCCCC(=O)Oc1ccc([N+](=O)[O-])cc1[N+](=O)[O-] [fragment 41]	ABCE1 ATP-binding cassette sub-family E member 1 (Homo sapiens, UniProt P61221)	1.3
O=C(Oc1ccc([N+](=O)[O-])cc1[N+](=O)[O-])c1ccccc1Nc1cccc(C(F)(F)F)c1 [fragment 40]	ABCE1 ATP-binding cassette sub-family E member 1 (Homo sapiens, UniProt P61221)	1.0
O=C(CC12CC3CC(CC(C3)C1)C2)Oc1ccc([N+](=O)[O-])cc1[N+](=O)[O-] [fragment 38]	ABCE1 ATP-binding cassette sub-family E member 1 (Homo sapiens, UniProt P61221)	0.9
O=C(Oc1ccc([N+](=O)[O-])cc1[N+](=O)[O-])C(c1ccccc1)(c1ccccc1)c1ccccc1 [fragment 42, 2,4-Dinitrophenyl 2,2,2-triphenylacetate]	ABCE1 ATP-binding cassette sub-family E member 1 (Homo sapiens, UniProt P61221)	1.1
O=C(CCc1coc2cc(F)ccc2c1=O)Oc1ccc([N+](=O)[O-])cc1[N+](=O)[O-] [fragment 36]	ABCE1 ATP-binding cassette sub-family E member 1 (Homo sapiens, UniProt P61221)	1.1
O=C(Oc1ccc([N+](=O)[O-])cc1[N+](=O)[O-])c1ccc(-c2ccccc2)cc1 [fragment 37]	ABCE1 ATP-binding cassette sub-family E member 1 (Homo sapiens, UniProt P61221)	1.0

Below are some compounds; for each one, tell me its isoTOP-ABPP ratio (R) at liganded lysine P61221_K478.
1. O=C(Oc1ccc([N+](=O)[O-])cc1[N+](=O)[O-])c1ccc(Oc2ccccc2)cc1 [fragment 39, 2,4-Dinitrophenyl 4-phenoxybenzoate]
2. O=C(Oc1ccc([N+](=O)[O-])cc1[N+](=O)[O-])C1CCN(C(=O)OCc2ccccc2)CC1 [fragment 34]
3. CC(=O)Oc1ccc([N+](=O)[O-])cc1[N+](=O)[O-] [fragment 43, 2,4-Dinitrophenyl acetate]

Output:
1.0
1.2
1.4

Task: What does the data say about its isoTOP-ABPP ratio (R) at liganded lysine P61221_K478? Entry: O=C(Oc1ccc([N+](=O)[O-])cc1[N+](=O)[O-])c1ccc2ccccc2n1 [fragment 35]
Output: 1.1

---

Consider the following molecules; for each one, report its isoTOP-ABPP reactivity ratio at lysine Q13617_K489.
Target: CUL2 Cullin-2 (Homo sapiens)
Construct: isoTOP-ABPP experiments performed in cell lysates (in vitro); endogenous in cells; host or cells: soluble proteome of human cancer cell lines (MDA-MB-231, Ramos, Jurkat)
Sequence (Q13617 whole entry): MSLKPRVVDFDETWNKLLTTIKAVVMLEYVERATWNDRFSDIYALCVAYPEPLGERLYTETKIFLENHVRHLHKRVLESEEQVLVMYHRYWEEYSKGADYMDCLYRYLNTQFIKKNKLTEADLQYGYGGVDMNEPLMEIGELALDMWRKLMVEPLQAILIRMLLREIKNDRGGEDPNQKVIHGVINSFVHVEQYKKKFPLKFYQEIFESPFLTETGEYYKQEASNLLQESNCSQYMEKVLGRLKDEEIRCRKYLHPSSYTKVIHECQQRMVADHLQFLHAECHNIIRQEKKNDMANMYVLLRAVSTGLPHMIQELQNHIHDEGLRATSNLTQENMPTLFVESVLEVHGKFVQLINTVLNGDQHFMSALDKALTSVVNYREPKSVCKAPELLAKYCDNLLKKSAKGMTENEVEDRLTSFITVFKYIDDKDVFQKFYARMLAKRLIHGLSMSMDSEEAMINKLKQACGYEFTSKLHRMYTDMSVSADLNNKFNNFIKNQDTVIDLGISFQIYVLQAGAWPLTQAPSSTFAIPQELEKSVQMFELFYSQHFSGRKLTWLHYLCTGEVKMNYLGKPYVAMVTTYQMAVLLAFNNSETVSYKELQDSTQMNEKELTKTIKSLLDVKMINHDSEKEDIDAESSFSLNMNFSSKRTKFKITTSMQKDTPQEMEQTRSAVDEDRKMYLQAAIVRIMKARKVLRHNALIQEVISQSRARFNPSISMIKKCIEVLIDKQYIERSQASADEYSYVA
Assay: competitive isoTOP-ABPP
Assay type: binding
Conditions: 50 uM, 231 sol, in vitro
Numbers only.

MOLECULE	TARGET ENTITY	NUMERIC READOUT
O=C(Oc1c(F)c(F)c(F)c(F)c1F)C1CCN(C(=O)OCc2ccccc2)CC1	CUL2 Cullin-2 (Homo sapiens)	0.9
O=C(CN1C(=O)c2ccccc2C1=O)Oc1c(F)c(F)c(F)c(F)c1F	CUL2 Cullin-2 (Homo sapiens)	1.1
O=C(Oc1ccc([N+](=O)[O-])cc1[N+](=O)[O-])c1cc(C(F)(F)F)cc(C(F)(F)F)c1	CUL2 Cullin-2 (Homo sapiens)	1.1
O=C(CCc1cn(-c2ccccc2)nc1-c1ccccc1)Oc1ccc([N+](=O)[O-])cc1[N+](=O)[O-]	CUL2 Cullin-2 (Homo sapiens)	1.2
COc1cc(CCC(=O)Oc2ccc([N+](=O)[O-])cc2[N+](=O)[O-])cc(OC)c1OC	CUL2 Cullin-2 (Homo sapiens)	1.2
O=C(Oc1ccc([N+](=O)[O-])cc1[N+](=O)[O-])C(c1ccccc1)c1ccccc1 [fragment 30, 2,4-Dinitrophenyl 2,2-diphenylacetate]	CUL2 Cullin-2 (Homo sapiens)	1.1
O=C(CCc1coc2cc(F)ccc2c1=O)Oc1c(F)c(F)c(F)c(F)c1F	CUL2 Cullin-2 (Homo sapiens)	0.9
CCn1cc(C(=O)Oc2c(F)c(F)c(F)c(F)c2F)c(=O)c2ccc(C)nc21	CUL2 Cullin-2 (Homo sapiens)	1.0
Cn1cc(CC(=O)Oc2ccc([N+](=O)[O-])cc2[N+](=O)[O-])c2ccccc21	CUL2 Cullin-2 (Homo sapiens)	1.1

Proceed to the following item.
Task: Reported isoTOP-ABPP reactivity ratio at lysine Q13617_K489 for CUL2 Cullin-2 (Homo sapiens), given O=C(Oc1c(F)c(F)c(F)c(F)c1F)c1ccc2ccccc2n1 ?
Output: 1.1

---

Molecular target: HDHD3 Haloacid dehalogenase-like hydrolase domain-containing protein 3 (Homo sapiens, UniProt Q9BSH5)
Construct: isoTOP-ABPP experiments performed in cell lysates (in vitro); endogenous in cells; host or cells: soluble proteome of human cancer cell lines (MDA-MB-231; Ramos and Jurkat also prepared)
Sequence (Q9BSH5 whole entry, the tested form may be a part): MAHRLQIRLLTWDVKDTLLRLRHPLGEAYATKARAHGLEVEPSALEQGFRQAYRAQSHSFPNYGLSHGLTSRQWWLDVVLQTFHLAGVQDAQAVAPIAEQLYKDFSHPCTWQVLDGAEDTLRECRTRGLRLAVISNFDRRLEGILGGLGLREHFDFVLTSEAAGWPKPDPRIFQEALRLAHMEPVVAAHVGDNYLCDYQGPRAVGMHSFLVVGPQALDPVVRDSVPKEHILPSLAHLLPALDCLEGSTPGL
Experiment: competitive isoTOP-ABPP
Format: binding
Details: 50 uM, in vitro, sol, 231
I'd be grateful if you could share measured isoTOP-ABPP ratio (R) at liganded lysine Q9BSH5_K15 for these entries.
One number for each entry.

MOLECULE	NUMERIC READOUT
O=C(Oc1ccc([N+](=O)[O-])cc1[N+](=O)[O-])C1CCN(C(=O)OCc2ccccc2)CC1	4.1
O=C(CC12CC3CC(CC(C3)C1)C2)Oc1ccc([N+](=O)[O-])cc1[N+](=O)[O-]	1.2

# batch: return isoTOP-ABPP ratio (R) at liganded lysine Q9BSH5_K15 for each of the 3 molecules below
1. O=C(Oc1ccc([N+](=O)[O-])cc1[N+](=O)[O-])c1ccc2ccccc2n1
2. O=C(Oc1ccc([N+](=O)[O-])cc1[N+](=O)[O-])c1ccc(-c2ccccc2)cc1
3. O=C(Oc1ccc([N+](=O)[O-])cc1[N+](=O)[O-])C(c1ccccc1)(c1ccccc1)c1ccccc1 [fragment 42, 2,4-Dinitrophenyl 2,2,2-triphenylacetate]

Output:
[7.0, 4.3, 0.9]

Field: isoTOP-ABPP ratio (R) at liganded lysine Q9BSH5_K15. Fill in for each record below.
1. O=C(CCc1coc2cc(F)ccc2c1=O)Oc1ccc([N+](=O)[O-])cc1[N+](=O)[O-]
2. CC(=O)Oc1ccc([N+](=O)[O-])cc1[N+](=O)[O-] [fragment 43, 2,4-Dinitrophenyl acetate]
3. O=C(Oc1ccc([N+](=O)[O-])cc1[N+](=O)[O-])c1ccccc1Nc1cccc(C(F)(F)F)c1
4. O=C(Oc1ccc([N+](=O)[O-])cc1[N+](=O)[O-])c1ccc(Oc2ccccc2)cc1 [fragment 39, 2,4-Dinitrophenyl 4-phenoxybenzoate]
5. CC(C)(C)OC(=O)NCCCC(=O)Oc1ccc([N+](=O)[O-])cc1[N+](=O)[O-]

Output:
10.4
3.1
0.9
1.3
2.8

---

Can you tell me isoTOP-ABPP reactivity ratio at lysine P60520_K46 for the items I'm about to list?
Target: GABARAPL2 Gamma-aminobutyric acid receptor-associated protei (Homo sapiens, UniProt P60520)
Construct: isoTOP-ABPP experiments performed in cell lysates (in vitro); endogenous in cells; host or cells: soluble proteome of human cancer cell lines (MDA-MB-231, Ramos, Jurkat)
Sequence (P60520 1-116 limits assumed): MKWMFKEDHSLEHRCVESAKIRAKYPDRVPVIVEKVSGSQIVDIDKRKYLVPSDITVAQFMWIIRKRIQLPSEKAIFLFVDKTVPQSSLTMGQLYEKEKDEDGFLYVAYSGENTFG
Assay: competitive isoTOP-ABPP
Format: binding
Settings: 50 uM, 231 sol, in vitro
Numbers only.

// solved cases for isoTOP-ABPP reactivity ratio at lysine P60520_K46 follow
O=C(Oc1c(F)c(F)c(F)c(F)c1F)c1ccc2ccccc2n1 1.2
O=C(CCc1cn(-c2ccccc2)nc1-c1ccccc1)Oc1ccc([N+](=O)[O-])cc1[N+](=O)[O-] 0.9

Value sought for every listed compound: isoTOP-ABPP reactivity ratio at lysine P60520_K46.
1. Cn1cc(CC(=O)Oc2ccc([N+](=O)[O-])cc2[N+](=O)[O-])c2ccccc21
2. O=C(Oc1ccc([N+](=O)[O-])cc1[N+](=O)[O-])c1cc(C(F)(F)F)cc(C(F)(F)F)c1
3. COc1cc(CCC(=O)Oc2ccc([N+](=O)[O-])cc2[N+](=O)[O-])cc(OC)c1OC

Output:
1: 1.1; 2: 1.2; 3: 1.2
